# STUDY_SYSTEM: UniProt:P55210
# Sequence (P55210 24-198 limits assumed): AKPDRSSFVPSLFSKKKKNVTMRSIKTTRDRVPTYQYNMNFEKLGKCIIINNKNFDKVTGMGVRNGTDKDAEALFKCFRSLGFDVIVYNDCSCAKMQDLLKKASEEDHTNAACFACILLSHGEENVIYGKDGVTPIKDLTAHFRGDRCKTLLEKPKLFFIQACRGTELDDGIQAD
# Sequence (P55210 207-303 limits assumed): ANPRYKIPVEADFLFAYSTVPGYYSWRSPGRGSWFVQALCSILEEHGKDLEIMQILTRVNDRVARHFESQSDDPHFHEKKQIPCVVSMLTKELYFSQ
# ASSAY_NOTES: Inhibition of human recombinant caspase 7 assessed as fluorescent 7-amido-4-methylcoumarin release
pIC50: −log10 of the molar value.
# pIC50 per entry
MEASUREMENT_LABEL: pIC50

SMILES	STUDY_SYSTEM	MEAS_VALUE
CC[C@H](C)[C@H](NC(=O)OCc1ccccc1)C(=O)N[C@H](/C=C/S(C)(=O)=O)CC(=O)O	UniProt:P55210	< 3.70
CC(C)[C@H](NC(=O)OCC1c2ccccc2-c2ccccc21)C(=O)N[C@H](/C=C/S(C)(=O)=O)CC(=O)O	UniProt:P55210	< 3.70
CC(C)[C@H](NC(=O)OCc1ccccc1)C(=O)N[C@H](/C=C/S(C)(=O)=O)CC(=O)O	UniProt:P55210	< 3.70
CC(=O)N[C@@H](CC(=O)O)C(=O)N[C@@H](CCC(=O)O)C(=O)N[C@H](C(=O)N[C@H](C=O)CC(=O)O)C(C)C	UniProt:P55210	7.23
